Values were extracted from patent US4640922A.

Entries and their measured response vs control in vivo at 0.001 mg/kg follow.
- Tested on: systemic blood pressure
- Method Notes: Systemic blood pressure (average pressure) in anesthetized dogs
- Assay type: in vivo, dog
- Experimental Parameters: Canis lupus familiaris, iv; 0.001 mg/kg; % of value before administration, average ± standard error; read-out: Average blood pressure, percentage compared with control
- Protocol: The pharmacological effects of the compounds of the present invention with respect to the blood flow and blood vessel resistance of vertebral artery and systemic blood pressure (average pressure) in anesthetized dogs. […] The first and second ribs were cut open to expose the left vertebral artery. […] All of these parameters were recorded simultaneously on a polygraph (RM-600, product of Nihon Koden, K.K.) All of the test compounds were injected through a cannula inserted into the femoral […].

CCOC(=O)C1=C(Cl)N=C(C)N(C(=O)OCC)C1c1ccccc1[N+](=O)[O-] (stereo not shown) [Compound 4] :: 95%
CCOC(=O)C1=C(C)N=C(C)N(C(=O)OCC)C1c1ccccc1[N+](=O)[O-] (stereo not shown) [Compound 1] :: 90%
CCOC(=O)C1=C(C)N=C(C)N(C(=O)OCC)C1c1ccccc1Br (stereo not shown) [Compound 8] :: 93%

Moving on to another compound below.
# lookup: response vs control in vivo at 0.001 mg/kg of CCOC(=O)C1=C(C)N=C(C)N(C(=O)OCC)C1c1ccccc1Cl (stereo not shown) [Compound 22]
94%

###

- Tested on: systemic blood pressure
- Method Notes: Systemic blood pressure (average pressure) in anesthetized dogs
- Format: in vivo, dog
- Experimental Parameters: Canis lupus familiaris, iv; 0.001 mg/kg; % of value before administration, average ± standard error; read-out: Average blood pressure, percentage compared with control
Entries and their measured response vs control in vivo at 0.001 mg/kg follow.
The reply should contain only the number, in %.

# lookup: response vs control in vivo at 0.001 mg/kg of COC(=O)C1=C(C)NC(C)=C(C(=O)OCCN(C)Cc2ccccc2)C1c1cccc([N+](=O)[O-])c1 (stereo not drawn) [Nicardipine, reference compound]
90

# lookup: response vs control in vivo at 0.001 mg/kg of COC(=O)C1=C(C)N=C(C)N(C(=O)OC)C1c1cccc([N+](=O)[O-])c1 (stereo not drawn)
95

# lookup: response vs control in vivo at 0.001 mg/kg of COC(=O)C1=C(C)N=C(C)N(C(=O)OC)C1c1ccccc1[N+](=O)[O-] (stereo not drawn)
92

###

- Test system: vertebral artery
- Method Notes: Blood flow and blood vessel resistance of vertebral artery in anesthetized dogs
- Format: in vivo, dog
- Experimental Parameters: Canis lupus familiaris, iv; 0.001 mg/kg; % of value before administration, average ± standard error; read-out: Vertebral artery vessel resistance, percentage compared with control
Entries and their measured response vs control in vivo at 0.001 mg/kg follow.
The reply should contain only the number, in %.

Consider the following illustrative entries.
COC(=O)C1=C(C)N=C(C)N(C(=O)OC)C1c1ccccc1[N+](=O)[O-] (centres unmarked) :: 99
COC(=O)C1=C(C)N=C(C)N(C(=O)OC)C1c1cccc([N+](=O)[O-])c1 (centres unmarked) :: 97
CCOC(=O)C1=C(Cl)N=C(C)N(C(=O)OCC)C1c1ccccc1[N+](=O)[O-] (centres unmarked) :: 91
CCOC(=O)C1=C(C)N=C(C)N(C(=O)OCC)C1c1ccccc1Br (centres unmarked) :: 89
COC(=O)C1=C(C)NC(C)=C(C(=O)OC)C1c1ccccc1[N+](=O)[O-] [Nifedipine, reference compound] :: 57

# lookup: response vs control in vivo at 0.001 mg/kg of CCOC(=O)C1=C(C)N=C(C)N(C(=O)OCC)C1c1ccccc1[N+](=O)[O-] (centres unmarked)
89

# lookup: response vs control in vivo at 0.001 mg/kg of CCOC(=O)C1=C(C)N=C(C)N(C(=O)OCC)C1c1ccccc1Cl (centres unmarked)
96

# lookup: response vs control in vivo at 0.001 mg/kg of COC(=O)C1=C(C)NC(C)=C(C(=O)OCCN(C)Cc2ccccc2)C1c1cccc([N+](=O)[O-])c1 (centres unmarked) [Nicardipine, reference compound]
79

###

- Test system: vertebral artery
- Method Notes: Blood flow and blood vessel resistance of vertebral artery in anesthetized dogs
- Assay type: in vivo, dog
- Experimental Parameters: Canis lupus familiaris, iv; 0.001 mg/kg; % of value before administration, average ± standard error; read-out: Vertebral artery blood flow, percentage compared with control
Quantity Name: response vs control in vivo at 0.001 mg/kg (%)
The reply should contain only the number, in %.

Consider the following illustrative entries.
COC(=O)C1=C(C)NC(C)=C(C(=O)OCCN(C)Cc2ccccc2)C1c1cccc([N+](=O)[O-])c1 (stereo not shown) [Nicardipine, reference compound] :: 123
CCOC(=O)C1=C(C)N=C(C)N(C(=O)OCC)C1c1ccccc1[N+](=O)[O-] (stereo not shown) :: 115

# lookup: response vs control in vivo at 0.001 mg/kg of CCOC(=O)C1=C(C)N=C(C)N(C(=O)OCC)C1c1ccccc1Br (stereo not shown)
110

# lookup: response vs control in vivo at 0.001 mg/kg of CCOC(=O)C1=C(C)N=C(C)N(C(=O)OCC)C1c1ccccc1Cl (stereo not shown)
105

# lookup: response vs control in vivo at 0.001 mg/kg of COC(=O)C1=C(C)N=C(C)N(C(=O)OC)C1c1cccc([N+](=O)[O-])c1 (stereo not shown)
100

# lookup: response vs control in vivo at 0.001 mg/kg of COC(=O)C1=C(C)N=C(C)N(C(=O)OC)C1c1ccccc1[N+](=O)[O-] (stereo not shown)
102

# lookup: response vs control in vivo at 0.001 mg/kg of CCOC(=O)C1=C(Cl)N=C(C)N(C(=O)OCC)C1c1ccccc1[N+](=O)[O-] (stereo not shown)
107

###

- System: vertebral artery
- Method Notes: Blood flow and blood vessel resistance of vertebral artery in anesthetized dogs
- Type: in vivo, dog
- Experimental Parameters: Canis lupus familiaris, iv; 0.01 mg/kg; % of value before administration, average ± standard error; read-out: Vertebral artery vessel resistance, percentage compared with control
Mark Satisfied only when response vs control in vivo at 0.01 mg/kg stays strictly below 70%. Values equal to the cut-off are Not satisfied.

Worked set:
COC(=O)C1=C(C)NC(C)=C(C(=O)OCCN(C)Cc2ccccc2)C1c1cccc([N+](=O)[O-])c1 (stereo not drawn) [Nicardipine, reference compound] :: Satisfied
CCOC(=O)C1=C(C)N=C(C)N(C(=O)OCC)C1c1cccc([N+](=O)[O-])c1 (stereo not drawn) [Compound 12] :: Not satisfied
CCOC(=O)C1=C(C)N=C(C)N(C(=O)OCC)C1c1ccccc1Br (stereo not drawn) [Compound 8] :: Satisfied

I wonder whether CCOC(=O)C1=C(C)N=C(C)N(C(=O)OCC)C1c1ccccc1Cl (stereo not drawn) [Compound 22] has response vs control in vivo at 0.01 mg/kg below 70%. Can you tell?
Satisfied

I wonder whether CCOC(=O)C1=C(Cl)N=C(C)N(C(=O)OCC)C1c1ccccc1[N+](=O)[O-] (stereo not drawn) [Compound 4] has response vs control in vivo at 0.01 mg/kg below 70%. Can you tell?
Satisfied

I wonder whether CCOC(=O)C1=C(Cl)N=C(C)N(C(=O)OCC)C1c1cccc([N+](=O)[O-])c1 (stereo not drawn) [Compound 13] has response vs control in vivo at 0.01 mg/kg below 70%. Can you tell?
Not satisfied

I wonder whether CCOC(=O)C1=C(C)N=C(C)N(C(=O)OCC)C1c1ccccc1[N+](=O)[O-] (stereo not drawn) [Compound 1] has response vs control in vivo at 0.01 mg/kg below 70%. Can you tell?
Satisfied

I wonder whether COC(=O)C1=C(C)N=C(C)N(C(=O)OC)C1c1cccc([N+](=O)[O-])c1 (stereo not drawn) [Compound 17] has response vs control in vivo at 0.01 mg/kg below 70%. Can you tell?
Not satisfied

I wonder whether COC(=O)C1=C(C)N=C(C)N(C(=O)OC)C1c1ccccc1[N+](=O)[O-] (stereo not drawn) [Compound 10] has response vs control in vivo at 0.01 mg/kg below 70%. Can you tell?
Not satisfied

###

- System: vertebral artery
- Method Notes: Blood flow and blood vessel resistance of vertebral artery in anesthetized dogs
- Type: in vivo, dog
- Experimental Parameters: Canis lupus familiaris, iv; 0.003 mg/kg; % of value before administration, average ± standard error; read-out: Vertebral artery vessel resistance, percentage compared with control
- Experimental: The pharmacological effects of the compounds of the present invention with respect to the blood flow and blood vessel resistance of vertebral artery and systemic blood pressure (average pressure) in anesthetized dogs. […] The first and second ribs were cut open to expose the left vertebral artery. […] All of these parameters were recorded simultaneously on a polygraph (RM-600, product of Nihon Koden, K.K.) All of the test compounds were injected through a cannula inserted into the femoral […].
Entries and their measured response vs control in vivo at 0.003 mg/kg follow.
The reply should contain only the number, in %.

Consider the following illustrative entries.
CCOC(=O)C1=C(C)N=C(C)N(C(=O)OCC)C1c1ccccc1Br (stereo not drawn) [Compound 8] :: 81
COC(=O)C1=C(C)N=C(C)N(C(=O)OC)C1c1cccc([N+](=O)[O-])c1 (stereo not drawn) [Compound 17] :: 95
CCOC(=O)C1=C(Cl)N=C(C)N(C(=O)OCC)C1c1cccc([N+](=O)[O-])c1 (stereo not drawn) [Compound 13] :: 89
CCOC(=O)C1=C(Cl)N=C(C)N(C(=O)OCC)C1c1ccccc1[N+](=O)[O-] (stereo not drawn) [Compound 4] :: 86
COC(=O)C1=C(C)N=C(C)N(C(=O)OC)C1c1ccccc1[N+](=O)[O-] (stereo not drawn) [Compound 10] :: 94

# lookup: response vs control in vivo at 0.003 mg/kg of CCOC(=O)C1=C(C)N=C(C)N(C(=O)OCC)C1c1ccccc1[N+](=O)[O-] (stereo not drawn) [Compound 1]
72

# lookup: response vs control in vivo at 0.003 mg/kg of CCOC(=O)C1=C(C)N=C(C)N(C(=O)OCC)C1c1ccccc1Cl (stereo not drawn) [Compound 22]
80

# lookup: response vs control in vivo at 0.003 mg/kg of CCOC(=O)C1=C(C)N=C(C)N(C(=O)OCC)C1c1cccc([N+](=O)[O-])c1 (stereo not drawn) [Compound 12]
86

# lookup: response vs control in vivo at 0.003 mg/kg of COC(=O)C1=C(C)NC(C)=C(C(=O)OCCN(C)Cc2ccccc2)C1c1cccc([N+](=O)[O-])c1 (stereo not drawn) [Nicardipine, reference compound]
67
